target: CDK2/CycA (Homo sapiens, UniProt P24941); construct: purchased Proqinase; assay: CDK2 Enzymatic Activity Assay (Lance Kinase Activity Assay, FRET); assay type: biochemical; conditions: Table 5B, class symbols per IC50 [nM] ranges of b581; read-out: CDK2: Selectivity of CDK7 inhibition over CDK2 inhibition
observation.type: IC50

> print(dat)
                                   molecule      test.value
1  CC(C)c1cnn2c(NCc3cccc4ccccc34)nc(OC3CCN(C)CC3)nc12  500 to 2500 nM
2  CC(C)c1cnn2c(NCc3ccccc3-c3nnnn3C)nc(O[C@@H]3CCCNC3)nc12    50 to 500 nM
3  CC(=O)Oc1ccccc1CNc1nc(O[C@@H]2CCCNC2)nc2c(C(C)C)cnn12  500 to 2500 nM
4  CNS(=O)(=O)c1ccccc1CNc1nc(O[C@@H]2CCCNC2)nc2c(C(C)C)cnn12    50 to 500 nM
5  Cc1ccc(CNc2nc(O[C@@H]3CCCNC3)nc3c(C(C)C)cnn23)c(OC2CCOC2)c1 (some centres unmarked)       > 2500 nM
6  CC(C)c1cnn2c(NCc3ccccc3S(=O)(=O)N3CCOCC3)nc(O[C@@H]3CCCNC3)nc12  500 to 2500 nM
7  CC(C)c1cnn2c(NCc3ccccc3-c3ccccc3)nc(OC3CCNCC3)nc12       > 2500 nM
8  CC(C)c1cnn2c(NCc3ccccc3-n3cccn3)nc(O[C@@H]3CCCNC3)nc12         < 50 nM

----------
target: CDK2/CycA (Homo sapiens); construct: purchased Proqinase; assay: CDK2 Enzymatic Activity Assay (Lance Kinase Activity Assay, FRET); type: biochemical; settings: Table 7; read-out: IC50 CDK2
pIC50: −log10 of the molar value.
observation.type: pIC50

> print(dat)
                                   molecule    test.value
1  CC(C)c1cnn2c(NCc3ccccc3S(=O)(=O)N(C)C)nc(O[C@@H]3CCCNC3)nc12 [(VII-38)]  6.30 to 7.30

----------
# IC50 values compiled below
target: CDK7/CycH/Mat1 (Homo sapiens); test: CDK7 Enzymatic Activity Assay (Lance Kinase Activity Assay, FRET); type: biochemical; details: CDK7/CycH/Mat1, 25 μM ATP final; class ranges; read-out: CDK7: IC50 [nM] for CDK7 inhibition
Sequence (P50613 whole entry): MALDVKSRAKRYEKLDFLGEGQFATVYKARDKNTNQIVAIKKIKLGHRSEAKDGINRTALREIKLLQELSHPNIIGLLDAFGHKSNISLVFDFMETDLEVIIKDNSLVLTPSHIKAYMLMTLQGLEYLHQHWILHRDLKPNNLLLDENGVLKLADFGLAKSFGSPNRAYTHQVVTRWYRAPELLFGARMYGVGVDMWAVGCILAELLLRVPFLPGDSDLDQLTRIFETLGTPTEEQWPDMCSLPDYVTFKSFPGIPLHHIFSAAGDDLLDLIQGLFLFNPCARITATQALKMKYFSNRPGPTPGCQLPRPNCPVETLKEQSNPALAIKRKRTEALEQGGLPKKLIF
observation.type: IC50

> print(dat)
                                    compound              system.under.test  observation.type   test.value
 1  CC(C)c1cnn2c(NCc3ccccc3SC3CCCC3)nc(O[C@@H]3CCCNC3)nc12  CDK7/CycH/Mat1 (Homo sapiens)              IC50      > 25 nM
 2  CC(C)c1cnn2c(NCc3ccccc3N=S(C)(C)=O)nc(O[C@@H]3CCCNC3)nc12  CDK7/CycH/Mat1 (Homo sapiens)              IC50       < 5 nM
 3  CC(C)c1cnn2c(NCc3ccccc3CN3CCCC3=O)nc(O[C@@H]3CCCNC3)nc12  CDK7/CycH/Mat1 (Homo sapiens)              IC50  10 to 25 nM
 4  CC(C)c1cnn2c(NCc3ccccc3OC(F)F)nc(OC3CCN(C)CC3)nc12  CDK7/CycH/Mat1 (Homo sapiens)              IC50       < 5 nM
 5  CC(C)c1cnn2c(NCc3ccccc3-n3cccn3)nc(CN3CC(N4CCC(F)(F)C4)C3)nc12  CDK7/CycH/Mat1 (Homo sapiens)              IC50      > 25 nM
 6  CC(C)c1cnn2c(NCc3ccccc3S(=O)(=O)N3CCOCC3)nc(O[C@@H]3CCCNC3)nc12  CDK7/CycH/Mat1 (Homo sapiens)              IC50       < 5 nM
 7  CC(C)c1cnn2c(NCc3ccccc3-n3cccn3)nc(N3CCCC34CCNCC4)nc12  CDK7/CycH/Mat1 (Homo sapiens)              IC50       < 5 nM
 8  COCCN1CCN(Cc2nc(NCc3ccccc3-n3cccn3)n3ncc(C(C)C)c3n2)CC1  CDK7/CycH/Mat1 (Homo sapiens)              IC50      > 25 nM
 9  CC(C)c1cnn2c(NCc3ccccc3-n3cccn3)nc(CNCCN3CCCC3)nc12  CDK7/CycH/Mat1 (Homo sapiens)              IC50      > 25 nM
10  CC(C)c1cnn2c(NCc3ccccc3-n3cccn3)nc(C(=O)N3CC4(CNC4)C3)nc12  CDK7/CycH/Mat1 (Homo sapiens)              IC50      > 25 nM
11  CC(C)c1cnn2c(NCc3ccccc3NC(=O)Nc3ccccc3)nc(O[C@@H]3CCCNC3)nc12  CDK7/CycH/Mat1 (Homo sapiens)              IC50  10 to 25 nM
12  CC(C)c1cnn2c(NCc3ccccc3-n3cccn3)nc(N3CCC4(CCCN4)CC3)nc12  CDK7/CycH/Mat1 (Homo sapiens)              IC50       < 5 nM
13  CC(C)c1cnn2c(NCc3ccccc3C3=CCCCC3)nc(O[C@@H]3CCCNC3)nc12  CDK7/CycH/Mat1 (Homo sapiens)              IC50      > 25 nM
14  CC(C)c1cnn2c(NCc3ccccc3-n3cccn3)nc(OCCN3CCNCC3)nc12  CDK7/CycH/Mat1 (Homo sapiens)              IC50      > 25 nM
15  CSc1ccccc1CNc1nc(O[C@@H]2CCCNC2)nc2c(C(C)C)cnn12  CDK7/CycH/Mat1 (Homo sapiens)              IC50   5 to 10 nM
16  CC(C)c1cnn2c(NCc3c(F)cccc3-n3cccn3)nc(O[C@@H]3CCCNC3)nc12  CDK7/CycH/Mat1 (Homo sapiens)              IC50       < 5 nM
17  CC(C)c1cnn2c(NCc3ccccc3N3CCCC3=O)nc(O[C@@H]3CCCNC3)nc12  CDK7/CycH/Mat1 (Homo sapiens)              IC50       < 5 nM
18  CC(C)c1cnn2c(NCc3ccccc3Br)nc(O[C@@H]3CCCNC3)nc12  CDK7/CycH/Mat1 (Homo sapiens)              IC50       < 5 nM
19  CC(C)c1cnn2c(NCc3ccccc3C3CCCC3)nc(O[C@@H]3CCCNC3)nc12  CDK7/CycH/Mat1 (Homo sapiens)              IC50      > 25 nM
20  CC(C)c1cnn2c(NCc3ccccc3-n3cccn3)nc(OC3C=CCNC3)nc12 (stereo not shown)  CDK7/CycH/Mat1 (Homo sapiens)              IC50   5 to 10 nM
21  CC(C)c1cnn2c(NCc3ccccc3-n3cccn3)nc(NCCOCCN)nc12  CDK7/CycH/Mat1 (Homo sapiens)              IC50  10 to 25 nM
22  CC(C)c1cnn2c(NCc3ccccc3-n3cccn3)nc(OC3COC4(CCNCC4)C3)nc12 (stereo not shown) [(VII-121)]  CDK7/CycH/Mat1 (Homo sapiens)              IC50       < 5 nM
23  CC(C)c1cnn2c(NCc3ccccc3-c3nnn(C)n3)nc(N3CCC4(CCCN4)CC3)nc12  CDK7/CycH/Mat1 (Homo sapiens)              IC50       < 5 nM
24  CC(C)c1cnn2c(NCc3ccccc3-n3cccn3)nc(OC3CNCCOC3)nc12 (stereo not shown)  CDK7/CycH/Mat1 (Homo sapiens)              IC50  10 to 25 nM
25  CC(C)c1cnn2c(NCc3ccccc3-n3cccn3)nc(NCCCN3CCOCC3)nc12  CDK7/CycH/Mat1 (Homo sapiens)              IC50      > 25 nM
26  COc1ccccc1[C@H](C)Nc1nc(OC2CCN(C)CC2)nc2c(C(C)C)cnn12  CDK7/CycH/Mat1 (Homo sapiens)              IC50       < 5 nM
27  CCNC(=O)Oc1ccccc1CNc1nc(O[C@@H]2CCCNC2)nc2c(C(C)C)cnn12  CDK7/CycH/Mat1 (Homo sapiens)              IC50  10 to 25 nM
28  CC(C)c1cnn2c(NCc3ccccc3-n3cccn3)nc(CNCCN3CCOCC3)nc12  CDK7/CycH/Mat1 (Homo sapiens)              IC50      > 25 nM
29  CC(C)c1cnn2c(NCc3cccc4ccccc34)nc(OC3CCN(C)CC3)nc12  CDK7/CycH/Mat1 (Homo sapiens)              IC50   5 to 10 nM
30  CC(C)c1cnn2c(NCc3ccccc3OS(C)(=O)=O)nc(O[C@@H]3CCCNC3)nc12  CDK7/CycH/Mat1 (Homo sapiens)              IC50   5 to 10 nM
31  CC(C)Oc1ccccc1CNc1nc(OC2CCNCC2)nc2c(C(C)C)cnn12  CDK7/CycH/Mat1 (Homo sapiens)              IC50       < 5 nM
32  CC(C)c1cnn2c(NCc3ccccc3-c3ccccc3)nc(O[C@@H]3CCNC3)nc12  CDK7/CycH/Mat1 (Homo sapiens)              IC50   5 to 10 nM
33  COC(=O)C(CN)Nc1nc(NCc2ccccc2-n2cccn2)n2ncc(C(C)C)c2n1 (stereo not shown)  CDK7/CycH/Mat1 (Homo sapiens)              IC50      > 25 nM
34  CC(C)c1cnn2c(NCc3ccccc3-n3cccn3)nc(CN(C)CCCN3CCCCC3)nc12  CDK7/CycH/Mat1 (Homo sapiens)              IC50      > 25 nM
